# System under test: MMP-9 (Homo sapiens, UniProt P14780)
# Construct: purchased SIGMA PF024
# Sequence (P14780 94-707): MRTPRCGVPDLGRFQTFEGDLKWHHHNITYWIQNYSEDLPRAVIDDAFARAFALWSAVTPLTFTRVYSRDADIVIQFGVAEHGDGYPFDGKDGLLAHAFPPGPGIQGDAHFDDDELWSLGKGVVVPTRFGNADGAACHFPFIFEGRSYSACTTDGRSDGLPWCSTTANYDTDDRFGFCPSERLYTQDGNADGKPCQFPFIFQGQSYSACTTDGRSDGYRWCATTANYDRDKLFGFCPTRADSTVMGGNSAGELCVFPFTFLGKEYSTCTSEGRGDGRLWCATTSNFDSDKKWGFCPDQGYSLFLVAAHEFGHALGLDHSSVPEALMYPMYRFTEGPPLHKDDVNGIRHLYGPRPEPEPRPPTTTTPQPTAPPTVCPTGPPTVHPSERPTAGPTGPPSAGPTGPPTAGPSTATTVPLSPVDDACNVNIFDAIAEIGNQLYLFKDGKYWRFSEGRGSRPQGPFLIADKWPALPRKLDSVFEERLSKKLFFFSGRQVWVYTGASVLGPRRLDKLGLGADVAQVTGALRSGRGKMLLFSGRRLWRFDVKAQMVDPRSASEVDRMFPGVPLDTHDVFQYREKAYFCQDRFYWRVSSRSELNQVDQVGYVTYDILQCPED
# Assay info: FRET peptide cleavage efficiency with MMP-9 (standard pH 7.5; also pH 6.5)
# Type: biochemical
# Measurement setup: t = 120 min (Table 9)
Square brackets hold non-standard residues; d marks the D form. Ends that are not written are not given here. Tyr(3-NO2) = N[C@@H](Cc1ccc(O)c([N+](=O)[O-])c1)C(=O)O; 2Abz = Nc1ccccc1C(=O)O
Consider the following substances; for each one, report its % cleavage MMP-9 t = 120 min.
One number for each entry, in %.

Worked cases, answers included:
>>> reading("SSRGRRGPYMLQG ([2Abz]SSRGRRGPYMLQG[Tyr(3-NO2)]-NH2) [LNK021]")
100
>>> reading("SGRVAPYMLQG ([2Abz]SGRVAPYMLQG[Tyr(3-NO2)]-NH2) [LNK042]")
100
>>> reading("SGRPLGYFGKL ([2Abz]SGRPLGYFGKL[Tyr(3-NO2)]-NH2) [LNK056]")
100

Record % cleavage MMP-9 t = 120 min for all entries; do not skip any.
1. RGRRGP ([2Abz]RGRRGP[Tyr(3-NO2)]-NH2) [LNK048]
2. RGRRPLGYFGKL ([2Abz]RGRRPLGYFGKL[Tyr(3-NO2)]-NH2) [LNK057]

Return:
1. 0
2. 100

###

# System under test: MMP-2 (Homo sapiens)
# Construct: purchased SIGMA PF023
# Sequence (P08253 110-660): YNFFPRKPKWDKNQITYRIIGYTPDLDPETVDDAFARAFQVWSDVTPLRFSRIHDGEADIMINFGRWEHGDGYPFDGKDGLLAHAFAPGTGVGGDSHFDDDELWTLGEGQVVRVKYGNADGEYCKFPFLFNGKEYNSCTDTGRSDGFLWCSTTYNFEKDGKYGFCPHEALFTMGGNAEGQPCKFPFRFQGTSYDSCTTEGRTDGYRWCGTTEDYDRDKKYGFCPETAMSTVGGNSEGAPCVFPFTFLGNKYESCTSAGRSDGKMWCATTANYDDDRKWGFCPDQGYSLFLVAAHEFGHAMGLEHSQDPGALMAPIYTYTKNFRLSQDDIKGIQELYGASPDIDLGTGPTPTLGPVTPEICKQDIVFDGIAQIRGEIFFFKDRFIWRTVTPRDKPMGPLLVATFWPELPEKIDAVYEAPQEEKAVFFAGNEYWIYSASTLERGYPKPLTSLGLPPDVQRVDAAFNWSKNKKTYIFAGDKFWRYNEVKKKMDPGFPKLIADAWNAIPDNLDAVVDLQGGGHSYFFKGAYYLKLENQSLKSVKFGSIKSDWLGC
# Assay info: FRET peptide cleavage efficiency with MMP-2
# Type: biochemical
# Measurement setup: t = 60 min; 200 uM linker, 1 ug/ml protease, 37° C., buffer C pH 7.5
Square brackets hold non-standard residues; d marks the D form. Ends that are not written are not given here. Tyr(3-NO2) = N[C@@H](Cc1ccc(O)c([N+](=O)[O-])c1)C(=O)O; 2Abz = Nc1ccccc1C(=O)O
Measure name: % cleavage MMP-2 t = 60 min (%)
Give bare numbers, in %.

Worked cases, answers included:
>>> reading("RQRRSAPLGLAG ([2Abz]RQRRSAPLGLAG[Tyr(3-NO2)]-NH2) [LNK009]")
99
>>> reading("SSRGPASNRRLPLGLAG ([2Abz]SSRGPASNRRLPLGLAG[Tyr(3-NO2)]-NH2) [LNK001]")
98
>>> reading("SGRHSSKLQPLGYFGKL ([2Abz]SGRHSSKLQPLGYFGKL[Tyr(3-NO2)]-NH2) [LNK063]")
100
>>> reading("SGRVAGLVG ([2Abz]SGRVAGLVG[Tyr(3-NO2)]-NH2) [LNK016]")
99
>>> reading("SGRVLPLGMRA ([2Abz]SGRVLPLGMRA[Tyr(3-NO2)]-NH2) [LNK023]")
98
>>> reading("RGRRVANPLGYFGKL ([2Abz]RGRRVANPLGYFGKL[Tyr(3-NO2)]-NH2) [LNK058]")
100
>>> reading("KSKQHSL ([2Abz]KSKQHSL[Tyr(3-NO2)]-NH2) [LNK077]")
4
>>> reading("GSSYYSGA ([2Abz]GSSYYSGA[Tyr(3-NO2)]-NH2) [LNK079]")
42

Now for the substance whose % cleavage MMP-2 t = 60 min we want.
Enquiry: Provide measured % cleavage MMP-2 t = 60 min value, entry: GSSVYSGR ([2Abz]GSSVYSGR[Tyr(3-NO2)]-NH2) [LNK080]
Return: 3
